Tested on: MCF7 breast
Experiment: NCI-60 one-dose screen, 48 h
Details: 10 µM
Description: Growth inhibition of the MCF7 human tumor cell line is measured as a screen for anti-cancer activity. Cells are grown in 96 well plates and exposed to the test compound for 48 hours. Compounds are tested at a single concentration, which is 10^-5 M for most compounds. The reported endpoint is percent growth (GI% or GIPRCNT), where numbers from 0 - 100% represent growth inhibition, and numbers from -100% - 0 represent cell death. For example, a value of 40 represents 60% growth inhibition. […]
Compounds without any hit were thinned out: in the full panel of roughly 83,000, 20% have a hit. The source made the active and inactive calls. The calls were made as follows: active = growth percent below 10; inactive = the rest.
Respond only with the outcome that fits, drawn from 1 (active), -1 (inactive)

[in] Look up the recorded call for CN(C)CC(O)c1ccc2cc(Br)c3ccccc3c2c1 (stereo unspecified) in this test.
[out] -1

[in] Look up the recorded call for COc1ccc(-c2nn(-c3cccc(NC(=O)Nc4ccc(Cl)c(C(F)(F)F)c4)c3)cc2-c2ccncc2)cc1Cl in this test.
[out] 1

[in] Look up the recorded call for CC(C)=CCc1cc(O)cc2c1OC(C=C(C)C)C1=C2C(=O)C2=C(NCCS2(=O)=O)C1=O (stereo unspecified) in this test.
[out] 1

[in] Look up the recorded call for Nc1c(C(=O)Nc2cccc(F)c2)sc2nc3c(cc12)C(=O)CCC3 in this test.
[out] -1

[in] Look up the recorded call for Cc1cccc(NC2=C(C#N)C(=O)NC3(CCCC3)S2)c1 in this test.
[out] -1

[in] Look up the recorded call for Cc1ccc(C(=O)Nc2cccc(F)c2)cc1NC(=O)C1(c2ncnc3[nH]ccc23)CC1 in this test.
[out] -1

[in] Look up the recorded call for O=C(O)CN1C(=O)c2cccc3cccc(c23)C1=O in this test.
[out] -1

[in] Look up the recorded call for Fc1ccc2nc(-c3nc(-c4ccccc4)n4ccccc34)[nH]c2c1 in this test.
[out] 1

[in] Look up the recorded call for CC(=O)c1nc2ccccc2n1CCNC(N)=O in this test.
[out] -1

[in] Look up the recorded call for COc1ccc(Nc2ccnc(NCCNc3ccnc4cc(Cl)ccc34)n2)cc1 in this test.
[out] -1

[in] Look up the recorded call for O=C1OCC2=C1C(c1cccc(Cl)c1)c1cc3c(cc1N2CCO)OCO3 (stereo unspecified) in this test.
[out] -1
